- assay setup: Ebola virus entry assay, reporter ratio channel; Channel type: primary
Active and inactive are the calls of the source. The rule behind the calls is not given here.
Assign a class; possible classes are active, inactive

As a guide, the following entries are already answered.
compound: CCN(CC)CCOc1ccccc1C(=O)CCc1ccccc1
cat: active
//
compound: CC(=O)OCC(=O)Nc1cc(C#N)cc(NC(=O)COC(C)=O)c1Cl
cat: inactive
//
compound: [O-][n+]1ccccc1SSc1cccc[n+]1[O-]
cat: active

Dear colleague, could you share the recorded outcome for `CC1(C)OC(=O)Nc2ccc(Br)cc21` when you have a moment? inactive

What is the recorded call for this compound in the test? `FC(F)(F)C(F)(F)C(F)(F)C(F)(F)C(F)(F)C(F)(F)C(F)(F)C(F)(F)Br` inactive

Please indicate how the test categorized `Cc1ccc([N+](=O)[O-])[c]2c1[O][Hg]2` . active

Call for entry `CCC(=O)c1ccc2c(c1)N(CCCN(C)C)c1ccccc1S2` : active

State the result this test recorded for Cc1c(F)cc2c(=O)c(C(=O)O)cn3c2c1CCC3C (stereo not drawn) . inactive

Could you kindly confirm the outcome this assay logged for `CCCCOc1cc(C(=O)NCCN(CC)CC)c2ccccc2n1` ? active

Just curious, what result did `O=C1O[C@H]([C@@H](O)CO)C(O)=C1O` get here? inactive

Call for entry `CCOCCn1c(N2CCCN(C)CC2)nc2ccccc21` : active
